System: Phakopsora pachyrhizi (F129L)
TEST SUMMARY: Protective control of soybean rust on soybeans (PHAKPA P6)
Assay type: in vivo
STUDY CONDITIONS: protective P6, 4 ppm, soybean rust F129L
VALUE KIND: % PHAKPA (F129L) Disease level P6 at 4 ppm (%)
Dear colleague, please return just the value in %, with no unit written.

// known answers, use as guide
CNC(=O)/C(=C/OC)c1cccc(C)c1CO/N=C(\C)c1cccc(C(F)(F)F)c1 ... 100
CO/N=C(/C(=O)OC)c1cccc(C)c1CO/N=C(\C)c1ccc(C)c(Cl)c1 ... 47
C#Cc1cc(C#C)cc(/C(C)=N/OCc2c(C)cccc2/C(=N\OC)C(=O)NC)c1 ... 14

Query: What value of % PHAKPA (F129L) Disease level P6 at 4 ppm has been recorded for this entry: CO/N=C(/C(=O)OC)c1cccc(C)c1CO/N=C(\C)c1cccc(C(F)F)c1
Response: 87

Query: Please do the same for CNC(=O)/C(=N/OC)c1cccc(C)c1CO/N=C(\C)c1cc(C2CC2)cc(C(F)(F)F)c1 as well.
Response: 70

Query: Please do the same for CO/C=C(/C(=O)OC)c1cccc(C)c1CO/N=C(\C)c1ccc(Cl)c(Cl)c1C(F)(F)F as well.
Response: 37

Query: Please do the same for C#Cc1ccccc1/C(C)=N/OCc1c(C)cccc1/C(=N\OC)C(=O)NC as well.
Response: 90

Query: Please do the same for CO/N=C(/C(=O)OC)c1cccc(C)c1CO/N=C(\C)c1cccc(C(F)(F)F)c1 as well.
Response: 41

Query: Please do the same for CO/N=C(/C(=O)OC)c1cccc(C)c1CO/N=C(\C)c1ccc(C#N)cc1 as well.
Response: 93

Query: Please do the same for CNC(=O)/C(=N/OC)c1cccc(C)c1CO/N=C(\C)c1c(Cl)cc(Cl)cc1OC(F)(F)F as well.
Response: 83

Query: Please do the same for CO/C=C(/C(=O)OC)c1cccc(C)c1CO/N=C(\C)c1c(F)cccc1C(F)(F)F as well.
Response: 18

Query: Please do the same for CNC(=O)/C(=N/OC)c1cccc(C)c1CO/N=C(\C)c1ccccc1C#N as well.
Response: 100

Query: Please do the same for CNC(=O)/C(=N/OC)c1cccc(C)c1CO/N=C(\C)c1ccc(Cc2ccccc2)cc1OC(F)(F)F as well.
Response: 60

Query: Please do the same for CNC(=O)/C(=N/OC)c1cccc(C)c1CO/N=C(\C)c1ccccc1COC as well.
Response: 100

Query: Please do the same for CO/N=C(/C(=O)OC)c1cccc(C)c1CO/N=C(\C)c1cccc(-c2noc(C(F)(F)F)n2)c1 as well.
Response: 93

Query: Please do the same for CNC(=O)/C(=N/OC)c1cccc(C)c1CO/N=C(\C)c1cc(F)cc(C(F)(F)F)c1 as well.
Response: 6

Query: Please do the same for CNC(=O)/C(=N/OC)c1cccc(C)c1CO/N=C(\C)c1ccc(C(C)=O)cc1 as well.
Response: 90

Query: Please do the same for CNC(=O)/C(=N/OC)c1cccc(C)c1CO/N=C(\C)c1cccc(OC/C(C)=N/OC)c1 as well.
Response: 57

Query: Please do the same for CNC(=O)/C(=N/OC)c1cccc(C)c1CO/N=C(\C)c1cccc(-c2noc(C(F)(F)F)n2)c1 as well.
Response: 80

Query: Please do the same for CNC(=O)/C(=N/OC)c1cccc(C)c1CO/N=C(\C)c1ccc(Cc2ccccc2)cc1C(F)(F)F as well.
Response: 17

Query: Please do the same for CNC(=O)/C(=N/OC)c1cccc(C)c1CO/N=C(\C)c1cc(C(F)(F)F)ccc1C1CC1 as well.
Response: 90

Query: Please do the same for CO/N=C(/C(=O)OC)c1cccc(C)c1CO/N=C(\C)c1cccc(C)c1 as well.
Response: 9

Query: Please do the same for CNC(=O)/C(=N/OC)c1cccc(CF)c1CO/N=C(\C)c1cccc(C(F)(F)F)c1 as well.
Response: 19

Query: Please do the same for CO/N=C(/C(=O)OC)c1cccc(C)c1CO/N=C(/c1ccc(Cl)cc1)C(F)F as well.
Response: 97

Query: Please do the same for CO/N=C(/C(=O)OC)c1cccc(C)c1CO/N=C(\C)c1cc(Cl)c(F)c(Cl)c1 as well.
Response: 77

Query: Please do the same for CO/N=C(/C(=O)OC)c1cccc(C)c1CO/N=C(\C)c1ccc(F)cc1F as well.
Response: 90
